Each entry below carries its reported A2 Bind..
- System Under Test: A2.1 HLA molecules (Homo sapiens, UniProt P04439, D140Y/D185E/D98H/E176V/E277Q/G131W/G231S/I119V/I121R/I166T/I218V/L300P/L318F/N151K/N90K/P208A/P217A/Q86G/Q94H/R138H/R169H/T345S)
- Type: binding
- Parameters: scale not given here
# answer = number (no unit)

// solved cases for A2 Bind. follow
> print(dat)
   sequence.record  test.result
1        ALMPLYASI       0.0760
2       SLLTEVETYV       0.0650
3        LLEDWGPCA       0.0180
4        CLFHIVNLI       0.2100
5        ALGLVCVQA       0.0150
6        ILGFVFTLT       0.2600

Please give the measured A2 Bind. for this sequence: TLATWVGVNL
0.5700

I would be grateful if you could share the reported A2 Bind. for DMLGRVFFV .
0.0110

Fill in: A2 Bind. of GTLEEVPTA is ___
0.0130

* * *

Catalogue of sequences with associated IC50
- System Under Test: DRB1*1101 (Homo sapiens, UniProt P01903+P01911, A100R/A169T/A87E/I96F/K41T/L162R/M171V/P40S/Q125H/Q178H/Q39Y/Q99D/R42S/S66Y/T262R/V115G/W38E)
- Sequence (P01903 26-254 limits assumed, other chains not shown): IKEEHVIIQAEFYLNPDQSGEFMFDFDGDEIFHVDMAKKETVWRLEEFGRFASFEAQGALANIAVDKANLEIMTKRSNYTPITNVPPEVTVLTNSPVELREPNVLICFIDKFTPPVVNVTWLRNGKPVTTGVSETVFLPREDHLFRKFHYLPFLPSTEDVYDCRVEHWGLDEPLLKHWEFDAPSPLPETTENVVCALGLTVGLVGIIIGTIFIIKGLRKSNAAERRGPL
- Procedure Details: biochemical
- Applied Conditions: Binding affinity DRB1 *1101
No end group written: not given here.
Report the figure in µM without appending any unit label.

> print(dat)
                     sequence.record  measurement.name  test.result
1  ESDMAFEYALLADSN [Peptide 90.0055]              IC50         4.68

Form field: reported IC50 of QQQMFLGTVKIPPTV [Peptide 89.0187]
5.88

Query (sequence): TPEWIQRQTVLQHSF [Peptide 89.0010] ; field requested: IC50
0.738

So what does the record say about IC50 for DRGVLILLLIRFKCG [Peptide 89.0099] ?
1.63

GET /values?readout=IC50&item= FKKFLKGIPKKSCML [Peptide 89.0073]
0.064

* * *

- System Under Test: DRB1*0802 (Homo sapiens, UniProt P01903+P01911, A100R/A103L/A169T/F76Y/H45Y/I96F/K41T/L162R/M171V/P40S/Q125H/Q178H/Q39Y/Q99D/R218S/R42G/S66Y/V115G/W38E)
- Procedure Details: biochemical
- Type: binding
pIC50: −log10 of the molar value. No end group written: not given here.
Please use Satisfied whenever pIC50 is not below 6, and Not satisfied whenever it is.

> print(dat)
                     sequence.record            cat
1  GCWRQTSREPRESTV [Peptide 1543.46]      Satisfied
2  VMAIFGVNPTVAEGF [Peptide 89.0080]  Not satisfied
3  RHLDKKQRFHNIRGR [Peptide 1543.26]  Not satisfied
4  RVPVSHSFPHPLYNM [Peptide 68.0006]  Not satisfied

Hi team, for RYRFQKYKTLFVDVT [Peptide 90.0019] , is the recorded pIC50 at or above 6?
Satisfied

Kindly determine if pIC50 recorded for VSKLMSQLLNIPETH [Peptide 89.0101] is above or exactly 6.
Not satisfied

// inclusive: pIC50 at least 6? input: AYGISFMELVRPFKS [Peptide 89.0060]
Satisfied

Is pIC50 at least 6? Consider ELQMALKGLAQSKYN [Peptide 90.0005]
Satisfied

Reported pIC50 at or above 6? NSIFDFGEMVQWAYD [Peptide 89.0106]
Not satisfied

* * *

- System Under Test: A*0202 (Homo sapiens, UniProt P04439, D140Y/D185E/D98H/E176V/E277Q/G131W/G231S/I119L/I121R/I166T/I218V/L180W/L300P/L318F/N151K/N90K/P208A/P217A/Q67R/Q86G/Q94H/R138H/R169H/T345S)
- Procedure Details: biochemical
- Format: binding
pIC50: −log10 of the molar value. No end group written: not given here.
# pIC50 >= 8 gives criterion met, anything below gives criterion not met

Before answering, review these 5 worked examples.
> print(dat)
                   sequence.record                cat
1  EVQNTTYLWWV [Peptide 9013.0326]  criterion not met
2   TLFNVTRNDV [Peptide 9013.0230]  criterion not met
3      RLLQQLLFI [Peptide 1525.10]  criterion not met
4   AQYSWFVNGV [Peptide 9013.0172]      criterion met
5     RLENAILFTA [Peptide 1578.51]  criterion not met

Turning now to a further record.
API: above_or_equal(metric=pIC50, cutoff=8) for item VLFTCEPEA [Peptide 9013.0089]
criterion not met

* * *

- System Under Test: DRB1*0405 (Homo sapiens, UniProt P01903+P01911, A100R/A169T/D86S/F76Y/I96L/K127E/L162R/M171V/N62H/P40V/Q125Y/R42H/S133A/S149N/S66Y/V115G/V209L/W38E)
- Procedure Details: biochemical
- Assay type: binding
No end group written: not given here.
The entries below come with measured IC50 values attached.

Consider the following illustrative entries.
> print(dat)
                     sequence.record  test.result
1  LIRMECALLYTAKQM [Peptide 89.0179]      > 20 µM
2  DNELTDDSDIAYYYA [Peptide 90.0085]      > 20 µM
3  NTEVETQQMLQVEGR [Peptide 89.0002]      > 20 µM

Turning now to a further sequence:
I would be grateful if you could share the reported IC50 for MVQVEEQQTTLSCNG [Peptide 89.0040] .
> 20 µM

* * *

- System Under Test: A*3002 (Homo sapiens, UniProt P04439, D101N/D140H/D185E/E176R/F33S/G80R/H175R/K168Q/Q94H/R138E/R41S/V100E)
- Sequence (P04439 whole entry, looked up, the tested form may be a part, stated change not applied): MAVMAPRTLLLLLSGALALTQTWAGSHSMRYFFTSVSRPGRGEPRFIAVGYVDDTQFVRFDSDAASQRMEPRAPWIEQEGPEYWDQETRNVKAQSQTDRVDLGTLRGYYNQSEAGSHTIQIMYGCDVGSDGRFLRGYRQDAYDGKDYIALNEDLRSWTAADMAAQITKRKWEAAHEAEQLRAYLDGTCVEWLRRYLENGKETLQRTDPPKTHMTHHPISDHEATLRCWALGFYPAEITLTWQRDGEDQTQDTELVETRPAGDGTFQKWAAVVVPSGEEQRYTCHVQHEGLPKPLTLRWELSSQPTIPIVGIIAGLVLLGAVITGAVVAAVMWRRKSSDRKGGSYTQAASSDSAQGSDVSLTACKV
- Procedure Details: biochemical
- Assay type: binding
No end group written: not given here.
Measurement Name: IC50 (nM)
Only the number, expressed in nM, is required.

> print(dat)
                   sequence.record  measurement.name  endpoint.unit  test.result
1    ITDNNNGTY [Peptide 9012.0120]              IC50             nM           21
2      RFHNIGGRW [Peptide 78.0369]              IC50             nM           13
3  LSDTRNDVGPY [Peptide 9012.0164]              IC50             nM          152

Reported IC50, sequence VSDFRWYRY [Peptide 1549.43] : ____
99

So what does the record say about IC50 for ISDSYTYY [Peptide 9012.0102] ?
9110

Give its IC50 value. Item: ATTDLTIVY [Peptide 1549.51]
109

* * *

- System Under Test: A2.1 HLA molecules (Homo sapiens, UniProt P04439, D140Y/D185E/D98H/E176V/E277Q/G131W/G231S/I119V/I121R/I166T/I218V/L300P/L318F/N151K/N90K/P208A/P217A/Q86G/Q94H/R138H/R169H/T345S)
- Type: binding
- Set-up: scale not given here
Please assign False whenever A2 Bind. is at or above 0.09, and True whenever it is below.

> print(dat)
   sequence.record    cat
1        YMLDLQPET  False

In plain terms, does CLGWLTGMDI come in under 0.09 for A2 Bind.?
True

A record lists LMLGTLEEV . Is its A2 Bind. below 0.09?
False

Does this sequence meet the criterion A2 Bind. < 0.09? FLYGALLL
True

Dear colleague, could you confirm whether A2 Bind. of SLISDQLLM falls below 0.09? Thanks.
True

Here's an entry: SLQDIEITCVYCKTV . Is its A2 Bind. below 0.09?
True

Please let me know if QLVFGIELMEV shows A2 Bind. below 0.09.
False

Dear reviewer, please state whether SMHCKPEEV has A2 Bind. strictly beneath 0.09.
True

Below 0.09 on A2 Bind.? Entry VLARTFTPV
True

Quick check: A2 Bind. of HLPDRVHFA under 0.09?
True

# TODO verify A2 Bind. < 0.09 strictly for this sequence: NLGNLNVSV
True

Determine if LLTEVETYVL shows A2 Bind. strictly lower than 0.09.
True

For this sequence, is A2 Bind. lower than 0.09? MLLRLSEPAEL
False

# strict comparison: is reported A2 Bind. < 0.09? input = VMVTCLGLS V (VMVTCLGLSV)
False
